Could you please report measured Mean Signal Value for the items listed next?
target: T1, human CD26-derived 13 mer peptide 23 (human); test: peptide microarray
T1 peptide: NSTFDEFGHSIND
Give your answer as a number; write no unit.

Input: Please report the recorded Mean Signal Value for rhuMAb 409 (antibody, human IgG1, V domains shown, CM03 VH and VL with human IgG1 heavy chain constant region and human kappa constant region; also called X409) VH: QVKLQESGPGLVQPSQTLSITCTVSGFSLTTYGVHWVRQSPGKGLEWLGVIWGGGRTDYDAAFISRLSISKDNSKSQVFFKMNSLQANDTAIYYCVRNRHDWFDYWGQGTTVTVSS VL: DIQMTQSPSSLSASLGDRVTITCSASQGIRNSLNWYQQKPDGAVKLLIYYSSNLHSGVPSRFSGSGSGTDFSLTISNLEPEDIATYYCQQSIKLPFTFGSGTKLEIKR .
Output: 0

Input: Please report the recorded Mean Signal Value for rhuMAb 411 (antibody, human IgG1, kappa, V domains shown, also called X411) VH: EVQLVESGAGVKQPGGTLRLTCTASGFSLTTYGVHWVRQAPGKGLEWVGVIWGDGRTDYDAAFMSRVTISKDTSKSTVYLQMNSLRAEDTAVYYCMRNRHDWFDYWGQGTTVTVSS VL: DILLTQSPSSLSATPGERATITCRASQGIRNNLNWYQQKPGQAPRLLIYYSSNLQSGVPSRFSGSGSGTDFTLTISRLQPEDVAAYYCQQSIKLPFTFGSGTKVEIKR .
Output: 0.00481

Input: Please report the recorded Mean Signal Value for rhuMAb 412 (antibody, human IgG1, V domains shown, X385 VH and X380 VL with human IgG1 and human kappa constant regions; also called X412) VH: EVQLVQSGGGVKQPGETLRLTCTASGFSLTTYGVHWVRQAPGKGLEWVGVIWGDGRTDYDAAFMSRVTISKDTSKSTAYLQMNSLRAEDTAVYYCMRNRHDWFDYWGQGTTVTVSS VL: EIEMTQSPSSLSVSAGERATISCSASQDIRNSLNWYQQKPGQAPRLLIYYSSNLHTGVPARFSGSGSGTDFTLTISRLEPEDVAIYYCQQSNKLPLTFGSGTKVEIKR .
Output: 0
